Parameter protein stability index: see the listing below.
B1: C10orf62 (parent)
chain: GHSHHSHHGHPSHQSHSLPNRRH

# Variants of: B1
# PROTOCOL_DESCRIPTION: protein stability index of a GFP-peptide fusion (GPS, HEK-293T) (PSI 1-6); higher = more stable;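 further: lentivirally expressed fusions sorted by FACS into six bins by GFP to DsRed ratio, PSI derived from sequencing read proportions per bin multiplied by bin number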
# CONDITIONS: c terminus: native
REPORTED_ENDPOINT: protein stability index

> print(dat)
    variant.key        reported.endpoint  meas.value
 1         R21M  protein stability index           2
 2         R22D  protein stability index        3.39
 3         H13P  protein stability index        2.47
 4          G9P  protein stability index        1.91
 5         R21D  protein stability index         2.2
 6         R22E  protein stability index           2
 7          G9F  protein stability index        3.35
 8         H23A  protein stability index        2.23
 9          H4F  protein stability index        3.61
10         S15H  protein stability index        2.48
11         L18C  protein stability index        2.94
12          G9A  protein stability index        2.81
13         H13A  protein stability index         3.6
14         H23K  protein stability index        4.73
15          S6P  protein stability index        2.12
16         H10Y  protein stability index        3.67
17          H8M  protein stability index        2.06
18         P19R  protein stability index        2.09

Origin of measurements: the supplement of paper PMC10567573
